# Assayed system: T1, Recombinant human leptin binding domain (hLBD) (human, UniProt P48357 428-635, biotinylated with Sulfo-NHS-LC-Biotin in the yeast display assays; not labelled when immobilized in the plate binding assay)
# T1 construct: CRH2 sub-domain of the leptin receptor; Prepared in the applicants' laboratory; also called soluble human leptin receptor; CHR2
# T1 sequence (looked up): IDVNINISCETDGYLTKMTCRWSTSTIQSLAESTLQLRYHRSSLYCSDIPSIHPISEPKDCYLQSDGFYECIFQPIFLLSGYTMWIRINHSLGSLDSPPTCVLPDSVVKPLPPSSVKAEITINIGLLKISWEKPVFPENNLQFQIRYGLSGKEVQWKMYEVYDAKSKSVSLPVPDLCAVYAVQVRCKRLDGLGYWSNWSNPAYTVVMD
# Protocol details: competitive plate binding assay: immobilized hLBD, biotinylated mouse leptin as ligand, mutein as competitor
Quantity measured: fold increase in affinity as compared to the WT mouse leptin antagonist (fold)
Numeric only. Scale: fold

{"Binder": "mouse leptin antagonist D23G/L39A/D40A/F41A (ligand, mature) AVPIQKVQDDTKTLIKTIVTRINGISHTQSVSAKQRVTGAAAIPGLHPILSLSKMDQTLAVYQQVLTSLPSQNVLQIANDLENLRDLLHLLAFSKSCSLPQTSGLQKPESLDGVLEASLYSTEVVALSRLQGSLQDILQQLDVSPEC", "Measured value": 17.5}

Entry superactive mouse leptin antagonist (SMLA), D23L/L39A/D40A/F41A mouse leptin (ligand, also called D23L MLA; super active MLA) VPIQKVQDDTKTLIKTLVTRINLISHTQSVSAKQRVTGAAAIPGLHPILSLSKMDQTLAVYQQVLTSLPSQNVLQIANDLENLRDLLHLLAFSKSCSLPQTSGLQKPESLDGVLEASLYSTEVVALSRLQGSLQDILQQVDLSPGC — recorded fold increase in affinity as compared to the WT mouse leptin antagonist = 64

Entry mouse leptin antagonist D23K/L39A/D40A/F41A (ligand, mature) AVPIQKVQDDTKTLIKTIVTRINKISHTQSVSAKQRVTGAAAIPGLHPILSLSKMDQTLAVYQQVLTSLPSQNVLQIANDLENLRDLLHLLAFSKSCSLPQTSGLQKPESLDGVLEASLYSTEVVALSRLQGSLQDILQQLDVSPEC — recorded fold increase in affinity as compared to the WT mouse leptin antagonist = 19

Entry mouse leptin antagonist D23F/L39A/D40A/F41A (ligand, mature) AVPIQKVQDDTKTLIKTIVTRINFISHTQSVSAKQRVTGAAAIPGLHPILSLSKMDQTLAVYQQVLTSLPSQNVLQIANDLENLRDLLHLLAFSKSCSLPQTSGLQKPESLDGVLEASLYSTEVVALSRLQGSLQDILQQLDVSPEC — recorded fold increase in affinity as compared to the WT mouse leptin antagonist = 28
